Test protocol: Decitabine plasma pharmacokinetics
Type: in vivo, human
Assay setup: human, intravenous, 20 mg/m^2/day, Mean AUCinf (SD), Concurrent schedule: decitabine 20 mg/m^2/day (n = 6), Day 1, cycle 1
Measurement kind: AUC(0-inf)
Report field: quantity (unit follows the number).

Recorded AUC(0-inf) for Nc1ncn([C@H]2C[C@H](O)[C@@H](CO)O2)c(=O)n1 [decitabine, 5-aza-2’-deoxycytidine] , please?
152 ng·h/mL

* * *

Test protocol: Vorinostat serum pharmacokinetics
Type: in vivo, human
Assay setup: human, oral, 200 mg, Mean AUCt (SD), Concurrent schedule, 200 mg tid days 1–14, Day 4 (n = 7)
Measurement kind: AUC(0-t) (ng·h/mL)
# value in ng·h/mL; strip the unit string

I have this compound here, O=C(CCCCCCC(=O)Nc1ccccc1)NO [vorinostat, suberoylanilide hydroxamic acid] , and I need its recorded AUC(0-t).
1060
